test system: EtxB-mediated epitope delivery in JAWSII cells; assay type: cell-based, mouse (C57BL/6)
Peptide text beside a SMILES is read from it. * marks the point of attachment. Cbz = O=C(OCc1ccccc1)*
reported property: effect on direct loading and presentation of free 8mer peptide

- CC(=O)N[C@@H](CSC(=O)[C@]1([C@@H](O)C(C)C)NC(=O)[C@H](C)[C@@H]1O)C(=O)O [lactacystin]: failed to prevent
- CC(C)C[C@@H](C=O)NC(=O)[C@H](CC(C)C)NC(=O)[C@H](CC(C)C)NC(=O)OCc1ccccc1 [MG132] (Cbz-Leu-Leu-Leu-aldehyde): failed to prevent
